Numbers sourced from patent US4876359A.

- SYSTEM_NAME: Angiotensin Converting Enzyme (ACE) (Oryctolagus cuniculus)
- Construct: Lyophilized powder (1 g) of rabbit lungs (product of Pel-Freez Biologicals Company) was extracted; tissue Pel-Freez Biologicals Company; host or cells: rabbit lungs, lyophilized powder; 40,000 g supernatant of a phosphate buffer extract
- Sequence (P12822 34-1310): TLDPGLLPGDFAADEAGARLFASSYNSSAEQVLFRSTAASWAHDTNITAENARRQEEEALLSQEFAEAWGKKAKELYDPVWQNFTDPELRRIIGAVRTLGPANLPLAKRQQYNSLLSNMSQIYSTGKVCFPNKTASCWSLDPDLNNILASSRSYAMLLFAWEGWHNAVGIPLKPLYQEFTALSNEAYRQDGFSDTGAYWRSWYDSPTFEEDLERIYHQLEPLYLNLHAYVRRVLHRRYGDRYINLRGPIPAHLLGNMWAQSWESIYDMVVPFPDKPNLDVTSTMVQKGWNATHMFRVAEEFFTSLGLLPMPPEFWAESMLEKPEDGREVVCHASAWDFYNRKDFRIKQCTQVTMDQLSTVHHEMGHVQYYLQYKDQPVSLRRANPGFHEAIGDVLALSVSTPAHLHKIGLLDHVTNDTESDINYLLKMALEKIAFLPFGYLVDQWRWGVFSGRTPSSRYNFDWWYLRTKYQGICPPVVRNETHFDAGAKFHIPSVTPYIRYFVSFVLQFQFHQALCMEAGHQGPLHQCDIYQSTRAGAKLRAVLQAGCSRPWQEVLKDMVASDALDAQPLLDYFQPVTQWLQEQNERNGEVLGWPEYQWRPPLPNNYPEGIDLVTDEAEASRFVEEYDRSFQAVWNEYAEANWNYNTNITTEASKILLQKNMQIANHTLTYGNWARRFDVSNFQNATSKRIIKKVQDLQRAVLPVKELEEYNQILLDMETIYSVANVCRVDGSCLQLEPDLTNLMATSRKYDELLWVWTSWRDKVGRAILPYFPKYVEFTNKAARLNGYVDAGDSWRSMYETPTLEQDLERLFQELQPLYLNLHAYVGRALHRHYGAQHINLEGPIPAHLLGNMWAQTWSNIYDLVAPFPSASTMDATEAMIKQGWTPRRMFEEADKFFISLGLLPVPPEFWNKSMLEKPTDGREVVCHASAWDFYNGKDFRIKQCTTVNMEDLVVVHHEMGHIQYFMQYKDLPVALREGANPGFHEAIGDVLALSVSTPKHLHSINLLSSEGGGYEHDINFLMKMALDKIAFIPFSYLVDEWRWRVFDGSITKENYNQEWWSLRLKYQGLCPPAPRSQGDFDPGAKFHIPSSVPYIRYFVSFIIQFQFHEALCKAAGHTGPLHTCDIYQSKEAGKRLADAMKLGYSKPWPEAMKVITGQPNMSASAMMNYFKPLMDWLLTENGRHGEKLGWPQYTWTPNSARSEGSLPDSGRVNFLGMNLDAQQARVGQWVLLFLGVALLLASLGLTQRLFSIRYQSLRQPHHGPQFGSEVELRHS
- MEASUREMENT_NOTES: ACE inhibitory activity (Method 1, rabbit lung enzyme, hippurylglycylglycine)
- Type: biochemical
- EXPERIMENTAL_SETUP: pH 8.3, 37° C., 30 minutes, hydrochlorides, read-out: ACE inhibitory activity concentration (IC50)
Mark each entry YES if its IC50 sits below 7 nM, and NO for all others.

C[C@H](N[C@H]1CC(c2ccccc2)OC1=O)C(=O)N1CCC[C@H]1C(=O)O (stereo partly drawn) [Comparative compound, reference compound]    NO
CCCCCC1CC(N[C@@H](C)C(=O)N2CCC[C@H]2C(=O)O)C(=O)O1 (single isomer, unassigned)    NO
CCCCCCCCC1CC(N[C@@H](C)C(=O)N2CCC[C@H]2C(=O)O)C(=O)O1 (single isomer, unassigned)    YES
CCCCCCCC1CC(N[C@@H](C)C(=O)N2CCC[C@H]2C(=O)O)C(=O)O1 (single isomer, unassigned)    YES
CCCCCCCCCCC1CC(N[C@@H](C)C(=O)N2CCC[C@H]2C(=O)O)C(=O)O1 (single isomer, unassigned)    YES
